# assay.overview: chemical genetic growth profiling, strain panel (AID 1159580);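 further: tested at 20 µM; growth read once vehicle control cultures reached saturation at 30 °C; 1 = growth at the plate median or of vehicle wells; lower values mean less growth of the strain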
# setup.conditions: S. cerevisiae deletion strains, growth OD, locus YLL001W, strain dnm1, hits give low values
Out of some 5,500 compounds screened, about 2,000 (36%) were called active. Another 18% or so got no clear call; they are omitted. Some of the results follow.
I'd be grateful if you could share measured normalized growth for these entries.
Kindly provide the number alone.

Prompt: Request the reported normalized growth associated with CN(C(=O)CN(CCO)CC(=O)N(C)C(C)(C)Cc1ccccc1)C(C)(C)Cc1ccccc1
Response: 1.02

Prompt: Also COc1cc([C@H]2Oc3cc([C@H]4Oc5cc(O)cc(O)c5C(=O)[C@@H]4O)ccc3O[C@@H]2CO)ccc1O ?
Response: 1.01

Prompt: Also NNCCc1ccccc1 ?
Response: 1

Prompt: Also C/C=C/C(=O)N(CC)c1ccccc1C ?
Response: 0.996

Prompt: Also C=C1C2CC[C@@]3(C)[C@H](c4ccoc4)OC(=O)C[C@]13O[C@H]1CC(O)C(C)(C)C(CC(=O)OC)[C@@]21C (stereo partly specified) ?
Response: 0.989

Prompt: Also CC(=O)N=c1sc(S(N)(=O)=O)nn1C ?
Response: 1.01

Prompt: Also CC12CC3CC(C)(C1)CC(N)(C3)C2 ?
Response: 0.972

Prompt: Also CCCCS(=N)(=O)CCC(N)C(=O)O (stereo unspecified) ?
Response: 0.993

Prompt: Also O=c1cc(-c2ccccc2)oc2cccc(O)c12 ?
Response: 0.939

Prompt: Also C=C1C(C2(C)C=CC(=O)C(C)(C)C2CC(=O)OC)CC[C@@]2(C)[C@H](c3ccoc3)OC(=O)C3OC132 (stereo partly specified) ?
Response: 0.967

Prompt: Also Nc1ccncc1 ?
Response: 0.981

###

# assay.overview: chemical genetic growth profiling, strain panel (AID 1159580)
# setup.conditions: S. cerevisiae deletion strains, growth OD, locus YAL030W, strain snc1
Hit rate of the full screen: of about 5,500 compounds, about 2,000 (36%) were called active. About 18% were inconclusive and are not listed. Cut-off read from the data, not from the text of the source: active = normalized growth mostly below about 0.91 (no sharp cut-off); inconclusive = no clear call, values can overlap the other calls; inactive = mostly above about 0.92. The list shows a part of the results.
// allowed return values: 1 (active), -1 (inactive)

Prompt: Please state the recorded outcome for this molecule: C/C=C/C(=O)N(CC)c1ccccc1C
Response: -1

Prompt: Also CCCCCC1C(=O)CCC1CC(=O)OC (configuration not stated) ?
Response: -1

Prompt: Also C=C[C@H]1CN2CC[C@H]1C[C@@H]2[C@H](O)c1ccnc2ccccc12 ?
Response: -1

Prompt: Also O=c1cc(-c2ccccc2)oc2cccc(O)c12 ?
Response: -1

Prompt: Also CN(C)N=Nc1nc[nH]c1C(N)=O ?
Response: -1

Prompt: Also CCN(CC)CCOC(=O)C(c1ccccc1)c1ccccc1 ?
Response: -1

Prompt: Also CC(=O)O[C@H]1C[C@@H](OC(C)=O)C(C)(C)C2CC(=O)[C@]3(C)C(CC[C@@]4(C)[C@H](c5ccoc5)OC(=O)[C@H]5O[C@]543)[C@]21C (some centres not stated) ?
Response: -1

Prompt: Also CC1(C)C(O)CC(O)C2(C)C1CC(O)C1(C)C2CCC2(C)C(c3ccoc3)OC(=O)C3OC321 (configuration not stated) ?
Response: -1

Prompt: Also O=c1cc(-c2ccccc2)oc2cc(O)c(O)c(O)c12 ?
Response: 1

Prompt: Also CCCCCC1C(=O)CCC1CC(=O)O (configuration not stated) ?
Response: -1

Prompt: Also NC(N)=O ?
Response: -1

Prompt: Also Cc1nc2ccccn2c(=O)c1CCN1CCC(C(=O)c2ccc(F)cc2)CC1 ?
Response: -1

###

I'd be grateful if you could share measured normalized growth for these entries.
# assay.overview: chemical genetic growth profiling, strain panel (AID 1159580);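 further: tested at 20 µM; growth read once vehicle control cultures reached saturation at 30 °C; 1 = growth at the plate median or of vehicle wells; lower values mean less growth of the strain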
# setup.conditions: S. cerevisiae deletion strains, growth OD, locus YOR184W, strain ser1, hits give low values
Out of some 5,500 compounds screened, about 2,000 (36%) were called active. Another 18% or so got no clear call; they are omitted. The list shows a part of the results.
Kindly provide the number alone.

Prompt: Request the reported normalized growth associated with CCCC(CCC)C(=O)O
Response: 0.966

Prompt: Also N#C/C(=C\c1cccc(O)c1)C(=O)O ?
Response: 1.06

Prompt: Also CO[C@]12C[C@@H](COC(=O)c3cncc(Br)c3)CN(C)[C@@H]1Cc1cn(C)c3cccc2c13 ?
Response: 0.988

Prompt: Also CN[C@@H]1[C@H](OC2[C@H](O[C@H]3[C@H](O)[C@@H](O)[C@H](N=C(N)N)[C@@H](O)[C@@H]3N=C(N)N)O[C@@H](C)[C@]2(O)C=O)O[C@@H](CO)[C@H](O)[C@H]1O (stereo partly drawn) ?
Response: 1.03

Prompt: Also CC1CC2C3CC(F)C4=CC(=O)C=CC4(C)C3(F)C(O)CC2(C)C1C(=O)COC(=O)C(C)(C)C (stereo not drawn) ?
Response: 0.974

Prompt: Also CC1=C2[C@H]3OC(=O)[C@@H](C)[C@@H]3CC[C@@]2(C)C=CC1=O ?
Response: 1.03

Prompt: Also C[C@@H]1CC2C3C[C@H](F)C4=CC(=O)C=C[C@]4(C)[C@@]3(F)[C@@H](O)C[C@]2(C)[C@@]1(O)C(=O)COC(=O)C(C)(C)C (stereo partly drawn) ?
Response: 1.04

Prompt: Also CN1CC(CNC(=O)OCc2ccccc2)CC2c3cccc4c3c(cn4C)CC21 (stereo not drawn) ?
Response: 1

###

# assay.overview: chemical genetic growth profiling, strain panel (AID 1159580);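 further: tested at 20 µM; growth read once vehicle control cultures reached saturation at 30 °C; 1 = growth at the plate median or of vehicle wells; lower values mean less growth of the strain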
# setup.conditions: S. cerevisiae deletion strains, growth OD, locus YHR200W, strain rpn10, hits give low values
Out of some 5,500 compounds screened, about 2,000 (36%) were called active. Another 18% or so got no clear call; they are omitted. This is one part of the list.
measurement.kind: normalized growth
Kindly provide the number alone.

Prompt: Request the reported normalized growth associated with O=C(O)CCCOc1ccc(Cl)cc1Cl
Response: 1

Prompt: Also Nc1ccncc1 ?
Response: 0.96

Prompt: Also C[C@H](CCC(=O)O)[C@H]1CCC2C3C(CC[C@@]21C)[C@@]1(C)CC[C@@H](O)C[C@H]1C[C@H]3O (stereo partly drawn) ?
Response: 1.06

Prompt: Also NCC(CC(=O)O)c1ccc(Cl)cc1 (stereo not drawn) ?
Response: 0.987

Prompt: Also Cc1cc(C)cc(OCC2CNC(=O)O2)c1 (stereo not drawn) ?
Response: 1.02

Prompt: Also COC(=O)CCC(=O)O[C@H]1CCC2(C)C(CCC3C2C(=O)[C@@H](O)C2(C)C3CC3OC4(CCC(C)CO4)[C@@H](C)C32)C1 (stereo partly drawn) ?
Response: 1

Prompt: Also NS(=O)(=O)c1cc2c(cc1Cl)NC(C1CC3C=CC1C3)NS2(=O)=O (stereo not drawn) ?
Response: 0.997

Prompt: Also Nc1cc(-c2ccncc2)c[nH]c1=O ?
Response: 0.974

###

# assay.overview: chemical genetic growth profiling, strain panel (AID 1159580);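 further: tested at 20 µM; growth read once vehicle control cultures reached saturation at 30 °C; 1 = growth at the plate median or of vehicle wells; lower values mean less growth of the strain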
# setup.conditions: S. cerevisiae deletion strains, growth OD, locus YOR231W, strain MKK1, hits give low values
About 2,000 (36%) of roughly 5,500 compounds were called active. About 18% were inconclusive and are not listed. The list shows a part of the results.
I'd be grateful if you could share measured normalized growth for these entries.
Kindly provide the number alone.

Prompt: Request the reported normalized growth associated with CC[C@H](CCC(C)[C@H]1CCC2C3CCC4C[C@@H](O)CC[C@]4(C)C3CC[C@@]21C)C(C)C (stereo not given in full)
Response: 1.01

Prompt: Also Nc1cc(C(Cl)=C(Cl)Cl)c(S(N)(=O)=O)cc1S(N)(=O)=O ?
Response: 0.986

Prompt: Also NC(Cc1ccc(F)cc1)C(=O)O (stereo not given) ?
Response: 1.05

Prompt: Also COC(=O)CCC(C)[C@H]1CCC2C3C(C[C@H](O)[C@@]21C)[C@@]1(C)CC[C@@H](O)C[C@H]1C[C@H]3O (stereo not given in full) ?
Response: 0.991

Prompt: Also CC(CCC(=O)O)[C@H]1CCC2C3C[C@H](O)[C@@H]4C[C@H](O)CC[C@]4(C)C3CC[C@@]21C (stereo not given in full) ?
Response: 1.07

Prompt: Also CC(CCC(=O)O)[C@H]1CCC2C3CC[C@@H]4C[C@H](O)CC[C@]4(C)C3CC[C@@]21C (stereo not given in full) ?
Response: 0.97

Prompt: Also c1ccc2nc(N3CCNCC3)ccc2c1 ?
Response: 0.99

Prompt: Also N[C@H](Cc1ccccc1)C(=O)O ?
Response: 1.08

Prompt: Also O=C(Nc1cccc2ccccc12)c1ccccc1O ?
Response: 0.426

Prompt: Also NCC(CC(=O)O)c1ccc(Cl)cc1 (stereo not given) ?
Response: 1.08

Prompt: Also Cc1ccc(N2C(=O)CSC2c2ccc(Cl)c(Cl)c2)cc1Cl (stereo not given) ?
Response: 0.937

Prompt: Also CO[C@]12C[C@@H](COC(=O)c3cncc(Br)c3)CN(C)[C@@H]1Cc1cn(C)c3cccc2c13 ?
Response: 0.983

Prompt: Also CC(CCC(=O)O)[C@H]1CCC2C3CC[C@@H]4CCCC[C@]4(C)C3CC[C@@]21C (stereo not given in full) ?
Response: 0.969

Prompt: Also N[C@@H](Cc1cc(I)c(Oc2ccc(O)c(I)c2)c(I)c1)C(=O)O ?
Response: 1.01

Prompt: Also O=C(O)Cc1cc(I)c(Oc2cc(I)c(O)c(I)c2)c(I)c1 ?
Response: 0.67

Prompt: Also CN1CCN(C2=Nc3ccccc3Oc3ccc(Cl)cc32)CC1 ?
Response: 1.06

Prompt: Also O=C(O)CCCOc1ccc(Cl)cc1Cl ?
Response: 0.796

Prompt: Also N[C@@H](Cc1cc(I)c(Oc2cc(I)c(O)c(I)c2)c(I)c1)C(=O)O ?
Response: 1.02

Prompt: Also Cc1cc(O)c(C=O)c2c1C(=O)Oc1c(COC(=O)/C=C/C(=O)O)c(O)c(C(=O)O)c(C)c1O2 ?
Response: 0.953

Prompt: Also CN[C@@H]1[C@H](OC2[C@H](O[C@H]3[C@H](O)[C@@H](O)[C@H](N=C(N)N)[C@@H](O)[C@@H]3N=C(N)N)O[C@@H](C)[C@]2(O)C=O)O[C@@H](CO)[C@H](O)[C@H]1O (stereo not given in full) ?
Response: 0.979
